Numbers sourced from paper PMC3189723.

Biological target: ribosome nascent chain complex RNC_(1A9L) labeled with Cm on the nascent chain (1A9L 56 amb)
Assay: FRET or BRET
READOUT_KIND: pKd
A value of pKd is the negative decimal logarithm of a concentration given in moles per litre.

Sample BODIPY-Fl labeled Signal Recognition Particle (SRP; protein component Ffh) (from UniProt P0AGD7 1-453) (complex) — what was its pKd?
9.14
